This listing pairs molecules with measured Population Mitochondria Different-Phenotype (%).
- Tested on: HEK-293T
- measurement description: Multiplex assay against HEK293T
- Assay type: toxicity, cell-based
- measurement conditions: human, 24 h, 10 µM, compound concentration 10 uM, replicate 2
measure: Population Mitochondria Different-Phenotype (%)

molecule: CCCN1CCC[C@@H]2Cc3n[nH]cc3C[C@H]21.Cl [QUINPIROLE HYDROCHLORIDE]
recorded value: 43

molecule: Cc1nc2ccc(Oc3ccc(F)cc3)cc2c(=O)n1C[C@H]1CCCN(C(C)C)C1.Cl
recorded value: 88

molecule: CN1CCN2c3ncccc3Cc3ccccc3C2C1 (centres undefined) [MIRTAZAPINE]
recorded value: 44

molecule: O=C(NCCO)c1cccc(-c2cc(Nc3ccc(OC(F)(F)F)cc3)ncn2)c1
recorded value: 56

###

This listing pairs compounds with measured Population Mitotic Cells (%).
- Test system: Fibroblast
- measurement description: Multiplex assay against human fibroblast
- Format: toxicity, cell-based
- measurement conditions: 24 h, 10 µM, compound concentration 10 uM, replicate 1

compound: N[C@@]1(C(=O)O)CO[C@H]2[C@H](C(=O)O)[C@H]21 [LY-379268]
measured target: Fibroblast
readout units: %
Population Mitotic Cells (%): 33

compound: O=C(NCCO)c1cccc(-c2cc(Nc3ccc(OC(F)(F)F)cc3)ncn2)c1
measured target: Fibroblast
readout units: %
Population Mitotic Cells (%): 50

compound: O=C1COc2nccc(-c3ccccc3F)c2CN1Cc1cc(C(F)(F)F)cc(C(F)(F)F)c1
measured target: Fibroblast
readout units: %
Population Mitotic Cells (%): 33

compound: Oc1c(CN2CCN(c3ccccn3)CC2)cc(Cl)c2cccnc12
measured target: Fibroblast
readout units: %
Population Mitotic Cells (%): 10

compound: C[C@@H]1C[C@H]2[C@@H]3CCC4=CC(=O)C=C[C@]4(C)[C@@]3(F)[C@@H](O)C[C@]2(C)[C@@]1(O)C(=O)CO [DEXAMETHASONE]
measured target: Fibroblast
readout units: %
Population Mitotic Cells (%): 57

compound: Cc1ccc(/C(=C\CN2CCCC2)c2ccccn2)cc1 [TRIPROLIDINE]
measured target: Fibroblast
readout units: %
Population Mitotic Cells (%): 52

compound: COc1c(C)cc(NC(=O)c2nn(Cc3ccc(F)cc3)c3c2CN(C(=O)c2ccc[nH]2)C[C@]3(C)C(N)=O)cc1C
measured target: Fibroblast
readout units: %
Population Mitotic Cells (%): 34

compound: CC(=O)NCCc1c(Cc2ccccc2)[nH]c2ccccc12 [LUZINDOLE]
measured target: Fibroblast
readout units: %
Population Mitotic Cells (%): 52

compound: COc1cc(C(=O)N(CCCc2ccccc2)Cc2ccc(CC(=O)O)cc2)cc(OC)c1C
measured target: Fibroblast
readout units: %
Population Mitotic Cells (%): 45

compound: c1cc(OCCCN2CCCCC2)ccc1CN1CCCCC1 [JNJ-5207852]
measured target: Fibroblast
readout units: %
Population Mitotic Cells (%): 40

compound: COc1cc(NC(=O)CCN2CCC(OC(=O)Nc3ccccc3-c3ccccc3)CC2)c(Cl)cc1CNC[C@H](O)c1ccc(O)c2[nH]c(=O)ccc12 [BATEFENTEROL]
measured target: Fibroblast
readout units: %
Population Mitotic Cells (%): 48

compound: O=S(=O)(c1ccccc1)c1cnc2c(N3CCNCC3)cccc2c1 [INTEPIRDINE]
measured target: Fibroblast
readout units: %
Population Mitotic Cells (%): 60

compound: CC1(COc2ccc3c(c2)ncn3-c2ccc3cccc(N4CCC(N)CC4)c3n2)COC1 [CRENOLANIB]
measured target: Fibroblast
readout units: %
Population Mitotic Cells (%): 63

compound: C[C@H]1[C@H]2CC[C@H]3[C@@H]4CC=C5C[C@@H](N(C)C)CC[C@]5(C)[C@H]4CC[C@]23CN1C [CONESSINE]
measured target: Fibroblast
readout units: %
Population Mitotic Cells (%): 35

compound: CCNC1(C(N)=O)CCN(c2ncnc3c2nc(-c2ccccc2Cl)n3-c2ccc(Cl)cc2)CC1 [OTENABANT]
measured target: Fibroblast
readout units: %
Population Mitotic Cells (%): 45

compound: CCCn1c(=O)c2[nH]c(C3CCCC3)nc2n(CCC)c1=O
measured target: Fibroblast
readout units: %
Population Mitotic Cells (%): 36

compound: CN(C)c1ccnc2sc3c(=O)n(N4CCCCCC4)cnc3c12
measured target: Fibroblast
readout units: %
Population Mitotic Cells (%): 42

compound: O=C(NCC(=O)N1CC[C@H](N[C@H]2CC[C@@](O)(c3ccc(-c4ncccn4)cn3)CC2)C1)c1cccc(C(F)(F)F)c1 [PF-4136309]
measured target: Fibroblast
readout units: %
Population Mitotic Cells (%): 63

compound: C[C@H](NC(=O)c1c(C(F)F)nn(C)c1Oc1cccc(C(F)(F)F)c1)c1ccc(C(=O)O)cc1 [PALUPIPRANT]
measured target: Fibroblast
readout units: %
Population Mitotic Cells (%): 39

compound: CC[C@H]1OC(=O)[C@H](C)[C@@H](O[C@H]2C[C@@](C)(OC)[C@@H](O)[C@H](C)O2)[C@H](C)[C@@H](O[C@@H]2O[C@H](C)C[C@H](N(C)C)[C@H]2O)[C@@]2(C)CC(C)=C(O2)[C@H](C)[C@@H](O)[C@]1(C)O
measured target: Fibroblast
readout units: %
Population Mitotic Cells (%): 47

compound: CN1CCN2c3ncccc3Cc3ccccc3C2C1 (centres undefined) [MIRTAZAPINE]
measured target: Fibroblast
readout units: %
Population Mitotic Cells (%): 50

compound: CNC[C@H](O)c1ccc(O)c(O)c1 [EPINEPHRINE]
measured target: Fibroblast
readout units: %
Population Mitotic Cells (%): 34

compound: O=C(O)c1cc2ccccc2c(Cc2c(O)c(C(=O)O)cc3ccccc23)c1O [PAMOIC ACID]
measured target: Fibroblast
readout units: %
Population Mitotic Cells (%): 50

compound: Cc1ccccc1C(=O)Nc1ccc(C(=O)N2CCCC(N(C)C)c3ccccc32)cc1.Cl (centres undefined)
measured target: Fibroblast
readout units: %
Population Mitotic Cells (%): 41

compound: O=C(O)Cc1ccccc1Nc1c(Cl)cccc1Cl [DICLOFENAC]
measured target: Fibroblast
readout units: %
Population Mitotic Cells (%): 69

compound: Cc1nc2ccc(Oc3ccc(F)cc3)cc2c(=O)n1C[C@H]1CCCN(C(C)C)C1.Cl
measured target: Fibroblast
readout units: %
Population Mitotic Cells (%): 32

compound: Cc1ccc(F)cc1C(=O)Nc1ccc(C(=O)N2Cc3cccn3Cc3ccccc32)c(Cl)c1 [LIXIVAPTAN]
measured target: Fibroblast
readout units: %
Population Mitotic Cells (%): 75

compound: N#Cc1c(N)nc(SCc2csc(-c3ccc(Cl)cc3)n2)c(C#N)c1-c1ccc(OCCO)cc1 [CAPADENOSON]
measured target: Fibroblast
readout units: %
Population Mitotic Cells (%): 61

compound: Cc1ccc(C(C)(O)c2nc3ccccc3s2)c(C)c1 (centres undefined)
measured target: Fibroblast
readout units: %
Population Mitotic Cells (%): 44
